Here's a batch of molecules along with measured MIC for S. aureus ATCC 29213 (SA101, MSSA).
Report as a plain number; the unit µg/mL is understood.

Solved entries:
1) CCN(CC)CC(=O)Nc1cc(F)c2c(c1O)C(=O)C1=C(O)[C@]3(O)C(=O)C(C(N)=O)=C(O)[C@@H](N(C)C)[C@@H]3C[C@@H]1C2
0.125
2) CN(C)[C@@H]1C(O)=C(C(N)=O)C(=O)[C@@]2(O)C(O)=C3C(=O)c4c(O)c(NC(=O)CN5CCOCC5)cc(F)c4C[C@H]3C[C@@H]12
4
3) CN(C)[C@@H]1C(O)=C(C(N)=O)C(=O)[C@@]2(O)C(O)=C3C(=O)c4c(O)c(NC(=O)CN5CC[C@H](F)C5)cc(F)c4C[C@H]3C[C@@H]12
0.25

Value of MIC reported for the molecule `CN(C)[C@@H]1C(O)=C(C(N)=O)C(=O)[C@@]2(O)C(O)=C3C(=O)c4c(O)c(NC(=O)CNc5ccccc5)cc(F)c4C[C@H]3C[C@@H]12` is 2

----------
- System: S. aureus SA161 (tet resistant: tet(M) ribosomal protection)
- method summary: Minimum inhibitory concentration assay, SA161
- Type: cell-based
- conditions: Staphylococcus aureus, read-out: MICs SA161
readout kind: log10(MIC) (log10 of the value in µg/mL)
// units: µg/mL (pre-log); metric: MIC; scale: log10

Answered cases to consult:
1. CN(C)[C@@H]1C(O)=C(C(N)=O)C(=O)[C@@]2(O)C(O)=C3C(=O)c4c(O)c(NC(=O)CN5CC[C@H](F)C5)cc(F)c4C[C@H]3C[C@@H]12
-0.30
2. CN(C)[C@@H]1C(O)=C(C(N)=O)C(=O)[C@@]2(O)C(O)=C3C(=O)c4c(O)c(NC(=O)CN5CC[C@@H](O)C5)cc(F)c4C[C@H]3C[C@@H]12
0.30
3. CN(C)[C@@H]1C(O)=C(C(N)=O)C(=O)[C@@]2(O)C(O)=C3C(=O)c4c(O)c(NC(=O)CN5CCCC5)cc(F)c4C[C@H]3C[C@@H]12
-1.20
4. CN(C)[C@@H]1C(O)=C(C(N)=O)C(=O)[C@@]2(O)C(O)=C3C(=O)c4c(O)c(NC(=O)CNCC(F)(F)F)cc(F)c4C[C@H]3C[C@@H]12
0.30
5. CN(C)[C@@H]1C(O)=C(C(N)=O)C(=O)[C@@]2(O)C(O)=C3C(=O)c4c(O)c(NC(=O)CC5CC(F)C5)cc(F)c4C[C@H]3C[C@@H]12 (stereo partly shown)
0.00
6. CN(C)CC(=O)Nc1cc(F)c2c(c1O)C(=O)C1=C(O)[C@]3(O)C(=O)C(C(N)=O)=C(O)[C@@H](N(C)C)[C@@H]3C[C@@H]1C2
-0.90
7. CCN(C)CC(=O)Nc1cc(F)c2c(c1O)C(=O)C1=C(O)[C@]3(O)C(=O)C(C(N)=O)=C(O)[C@@H](N(C)C)[C@@H]3C[C@@H]1C2
-0.90
8. CN(C)[C@@H]1C(O)=C(C(N)=O)C(=O)[C@@]2(O)C(O)=C3C(=O)c4c(O)c(NC(=O)CN5Cc6ccccc6C5)cc(F)c4C[C@H]3C[C@@H]12
-0.30

Consider the additional compound presented here.
Sample `CCN(CC)CC(=O)Nc1cc(F)c2c(c1O)C(=O)C1=C(O)[C@]3(O)C(=O)C(C(N)=O)=C(O)[C@@H](N(C)C)[C@@H]3C[C@@H]1C2` ; log10(MIC) observed: -0.90

----------
- System: S. aureus ATCC 13709
- method summary: Thigh burden, neutropenic mouse thigh infection
- Type: in vivo
- conditions: maximum log10 reduction in bacteria compared to untreated control, achieved at tested doses; neutropenic mice, IV
Binary classification by Thigh Burden, with 5 log10 decrease as an inclusive lower bound for yes; all other cases are no.

1) CN(C)[C@@H]1C(O)=C(C(N)=O)C(=O)[C@@]2(O)C(O)=C3C(=O)c4c(O)c(NC(=O)CNC(C)(C)C)cc(F)c4C[C@H]3C[C@@H]12 [drawing 214]
no
2) CN(C)[C@@H]1C(O)=C(C(N)=O)C(=O)[C@@]2(O)C(O)=C3C(=O)c4c(O)c(NC(=O)CN5CCCC5)cc(F)c4C[C@H]3C[C@@H]12 [drawing 217]
yes

Answer whether Thigh Burden of CN(C)CC(=O)Nc1cc(F)c2c(c1O)C(=O)C1=C(O)[C@]3(O)C(=O)C(C(N)=O)=C(O)[C@@H](N(C)C)[C@@H]3C[C@@H]1C2 [drawing 220] is greater than or equal to 5 log10 decrease.
no

----------
- System: E. coli ATCC 25922
- method summary: GN sepsis study, mouse systemic infection model
- Format: in vivo
- conditions: mg/kg required to protect 50% of mice in septicemia model with E. coli strain
- Protocol: Compounds of the present invention were evaluated for efficacy in a mouse systemic infection model against a susceptible S. aureus isolate, ATCC 13709. Mice were infected via intraperitoneal injection with a bacterial load that would result in 0% survival within 48 hours after infection. Mice received the test compounds 60 minutes post infection via intravenous injection. […] Survival was assessed over a 48 hour period. Percent survival was calculated and PD50 values determined using Probit analysis. […]
readout kind: GN sepsis (mg/kg)
// note: answer is a bare numeric in mg/kg

Examples with their reported GN sepsis follow.
1. CN(C)[C@@H]1C(O)=C(C(N)=O)C(=O)[C@@]2(O)C(O)=C3C(=O)c4c(O)c(NC(=O)CNC(C)(C)C)cc(F)c4C[C@H]3C[C@@H]12 [drawing 214]
6.2
2. CN(C)c1cc(NC(=O)CNC(C)(C)C)c(O)c2c1C[C@H]1C[C@H]3[C@H](N(C)C)C(O)=C(C(N)=O)C(=O)[C@@]3(O)C(O)=C1C2=O
2.1
3. CC(C)CNCC(=O)Nc1cc(F)c2c(c1O)C(=O)C1=C(O)[C@]3(O)C(=O)C(C(N)=O)=C(O)[C@@H](N(C)C)[C@@H]3C[C@@H]1C2 [drawing 215]
14.3
4. CN(C)CC(=O)Nc1cc(F)c2c(c1O)C(=O)C1=C(O)[C@]3(O)C(=O)C(C(N)=O)=C(O)[C@@H](N(C)C)[C@@H]3C[C@@H]1C2 [drawing 220]
4.3

What the record says about CN(C)[C@@H]1C(O)=C(C(N)=O)C(=O)[C@@]2(O)C(O)=C3C(=O)c4c(O)c(NC(=O)CN5CCCC5)cc(F)c4C[C@H]3C[C@@H]12 [drawing 217] : GN sepsis is 4.36

----------
- Test system: S. aureus ATCC 29213 (SA101, MSSA)
- method summary: Minimum inhibitory concentration assay, SA101
- Type: cell-based
- conditions: Staphylococcus aureus; S. aureus ATCC 29213, MSSA control; read-out: MICs SA101
readout kind: MIC

1. CN(C)[C@@H]1C(O)=C(C(N)=O)C(=O)[C@@]2(O)C(O)=C3C(=O)c4c(O)c(NC(=O)CNC5CC5)cc(F)c4C[C@H]3C[C@@H]12
0.25 µg/mL
2. CN(C)[C@@H]1C(O)=C(C(N)=O)C(=O)[C@@]2(O)C(O)=C3C(=O)c4c(O)c(NC(=O)CN5CC[C@H](O)C5)cc(F)c4C[C@H]3C[C@@H]12
1 µg/mL
3. CN(C)[C@@H]1C(O)=C(C(N)=O)C(=O)[C@@]2(O)C(O)=C3C(=O)c4c(O)c(NC(=O)CN5CC[C@@H](F)C5)cc(F)c4C[C@H]3C[C@@H]12
0.25 µg/mL
4. CN(C)[C@@H]1C(O)=C(C(N)=O)C(=O)[C@@]2(O)C(O)=C3C(=O)c4c(O)c(NC(=O)CC5CC(F)C5)cc(F)c4C[C@H]3C[C@@H]12 (some centres unmarked)
0.25 µg/mL

Recorded MIC (compound `CN(C)[C@@H]1C(O)=C(C(N)=O)C(=O)[C@@]2(O)C(O)=C3C(=O)c4c(O)c(NC(=O)CNC5CCCC5)cc(F)c4C[C@H]3C[C@@H]12` ): 0.0625 µg/mL

----------
- System: S. aureus SA158 (tet resistant: tetK efflux)
- method summary: microbe, parasite or virus in culture
- Type: cell-based
- conditions: Staphylococcus aureus, read-out: MICs SA158
Parameter MIC: see the listing below.
Return type: number; implicit unit µg/mL.

1) COC[C@@H]1CCCN1CC(=O)Nc1cc(F)c2c(c1O)C(=O)C1=C(O)[C@]3(O)C(=O)C(C(N)=O)=C(O)[C@@H](N(C)C)[C@@H]3C[C@@H]1C2
1
2) CCCCCCCNCC(=O)Nc1cc(F)c2c(c1O)C(=O)C1=C(O)[C@]3(O)C(=O)C(C(N)=O)=C(O)[C@@H](N(C)C)[C@@H]3C[C@@H]1C2
2

Shifting focus to the molecule that follows.
Quick note, MIC for `CN(C)[C@@H]1C(O)=C(C(N)=O)C(=O)[C@@]2(O)C(O)=C3C(=O)c4c(O)c(NC(=O)CN5CCOCC5)cc(F)c4C[C@H]3C[C@@H]12` landed at 8
